Type: in vivo, humans
Conditions: both, human, plasma, po, 300 mg
reported.property: AUC(0-t) (ng·h/mL)
The reply should be a number in ng·h/mL, with the unit left off.

query: Returns the measured AUC(0-t) for the input molecule. Input: `COC(=O)[C@H](c1ccccc1Cl)N1CCc2sccc2C1`
result: 13.2

----------
Settings: both, human, plasma, oral, AUC0–∞, clopidogrel phase; geometric mean (geometric CV)
reported.property: AUC(0-inf) (ng·h/mL)
Field format: number, assumed ng·h/mL, no unit text.

query: Tell me the measured AUC(0-inf) of CC(C)(O)c1ccccc1CC[C@@H](SCC1(CC(=O)O)CC1)c1cccc(/C=C/c2ccc3ccc(Cl)cc3n2)c1 [Montelukast] , please.
result: 5990
